Target: ERK5 (Homo sapiens, UniProt Q13164)
Construct: made in house
Sequence (Q13164 whole entry): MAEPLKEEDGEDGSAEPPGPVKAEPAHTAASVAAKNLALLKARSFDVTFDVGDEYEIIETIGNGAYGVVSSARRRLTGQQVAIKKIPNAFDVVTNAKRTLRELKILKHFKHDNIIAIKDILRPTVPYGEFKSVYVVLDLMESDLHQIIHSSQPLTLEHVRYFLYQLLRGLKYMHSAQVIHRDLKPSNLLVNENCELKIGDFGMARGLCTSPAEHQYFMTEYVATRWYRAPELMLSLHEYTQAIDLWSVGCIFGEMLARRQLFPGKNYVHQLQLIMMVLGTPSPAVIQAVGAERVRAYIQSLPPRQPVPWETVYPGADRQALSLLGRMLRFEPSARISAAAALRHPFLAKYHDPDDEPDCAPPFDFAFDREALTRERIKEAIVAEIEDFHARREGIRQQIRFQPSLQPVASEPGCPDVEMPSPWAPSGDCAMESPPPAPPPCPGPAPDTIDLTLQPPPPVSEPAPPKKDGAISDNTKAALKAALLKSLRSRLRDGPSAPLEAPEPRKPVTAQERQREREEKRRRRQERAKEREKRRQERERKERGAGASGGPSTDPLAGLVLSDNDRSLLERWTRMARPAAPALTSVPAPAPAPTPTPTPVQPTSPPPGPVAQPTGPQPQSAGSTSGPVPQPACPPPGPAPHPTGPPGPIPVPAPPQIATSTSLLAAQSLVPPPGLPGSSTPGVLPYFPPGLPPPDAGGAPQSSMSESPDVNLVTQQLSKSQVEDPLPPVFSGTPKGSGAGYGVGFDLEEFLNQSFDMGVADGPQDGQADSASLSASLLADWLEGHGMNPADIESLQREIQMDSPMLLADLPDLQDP
Assay: ERK5 IMAP assay (fluorescence polarisation)
Type: biochemical
Conditions: average (e.g. geometric mean) where more than one data point; read-out: ERK5 IC50
The entries below come with measured IC50 values attached.
// note: answer is a bare numeric in µM

CCc1cccc(F)c1C(=O)c1c[nH]c(C(=O)NC2CCN(C)CC2)c1 [Example 201] = 4.97
COc1ccc(Cl)c(C(=O)c2c[nH]c(C(=O)Nc3ccc(CC4CCNCC4)nc3)c2)c1F [Example 117] = 0.0092
O=C(Nc1cccnc1)c1cc(C(=O)c2c(F)ccc(F)c2Cl)c[nH]1 [Example 214] = 1.01
Cc1ccc(F)c(C(=O)c2c[nH]c(C(=O)Nc3cncnc3)c2)c1 [Example 233] = 5.21

Form: item O=C(Nc1ccnnc1)c1cc(C(=O)c2c(F)cccc2Cl)c[nH]1 [Example 138] ; test system ERK5 (Homo sapiens, UniProt Q13164); IC50: 0.439

Form: item Cc1ccncc1NC(=O)c1cc(C(=O)c2c(Cl)ccc(Cl)c2F)c[nH]1 [Example 93] ; test system ERK5 (Homo sapiens, UniProt Q13164); IC50: 0.483

Form: item COCCn1cc(NC(=O)c2cc(C(=O)c3c(Cl)ccc(OC)c3F)c[nH]2)cn1 [Example 63] ; test system ERK5 (Homo sapiens, UniProt Q13164); IC50: 0.104

Form: item COc1ccc(Cl)c(C(=O)c2c[nH]c(C(=O)Nc3cnn(Cc4cccnc4)c3)c2)c1F [Example 66] ; test system ERK5 (Homo sapiens, UniProt Q13164); IC50: 0.0166

---

The entries below come with measured IC50 values attached.
Target: ERK5 (Homo sapiens)
Construct: made in house
Assay: ERK5 IMAP assay (fluorescence polarisation)
Format: biochemical
Conditions: average (e.g. geometric mean) where more than one data point; read-out: ERK5 IC50
// note: answer is a bare numeric in nM

See these solved cases before continuing.
Cc1ccc(F)c(C(=O)c2c[nH]c(C(=O)Nc3cccnc3)c2)c1 = 4050
O=C(Nc1cnn(Cc2ccncc2)c1)c1cc(C(=O)c2c(Cl)ccc(Cl)c2F)c[nH]1 = 21
COc1ccc(Cl)c(C(=O)c2c[nH]c(C(=O)Nc3cnn(Cc4ccncc4)c3)c2)c1F = 16.3
COc1ccc(Cl)c(C(=O)c2c[nH]c(C(=O)Nc3cnn(Cc4ccccn4)c3)c2)c1F = 53.8

Lab book: IC50 of Cc1ccncc1NC(=O)c1cc(C(=O)c2c(F)cccc2Cl)c[nH]1 noted as 1260

Lab book: IC50 of O=C(Nc1cncnc1)c1cc(C(=O)c2c(Cl)ccc(F)c2F)c[nH]1 noted as 554

Lab book: IC50 of O=C(Nc1ccncn1)c1cc(C(=O)c2cccc(Cl)c2Cl)c[nH]1 noted as 2660

Lab book: IC50 of CN1CCC(NC(=O)c2cc(C(=O)c3cc(F)ccc3F)c[nH]2)CC1 noted as 6160

Lab book: IC50 of COc1ccc(Cl)c(C(=O)c2c[nH]c(C(=O)Nc3ccc(NC4CCN(C)CC4)nc3)c2)c1F noted as 26.9

Lab book: IC50 of CN1CCN(c2ccc(NC(=O)c3cc(C(=O)c4c(F)cccc4Cl)c[nH]3)cn2)CC1 noted as 91.5

Lab book: IC50 of CS(=O)(=O)N1CCC(NC(=O)c2cc(C(=O)c3c(F)cccc3Cl)c[nH]2)CC1 noted as 298

Lab book: IC50 of O=C(Nc1cncnc1)c1cc(C(=O)c2c(F)ccc(F)c2F)c[nH]1 noted as 1070

Lab book: IC50 of CNc1ncc(NC(=O)c2cc(C(=O)c3c(F)cccc3Cl)c[nH]2)cn1 noted as 1750

Lab book: IC50 of O=C(Nc1cnccc1N1CCCC1)c1cc(C(=O)c2c(Cl)ccc(Cl)c2F)c[nH]1 noted as 8710
